- Test system: Wolbachia pipientis
- Method summary: Anti-Wolbachia Cell-Based Screen
- Type: functional
- Parameters: scale not given: in the data most compounds retested in dose-response had high values
- Experimental conditions: 5 µM
Screen size: about 48,000 compounds; about 13,000 (27%) showed an effect of 50% or more. The list shows a part of the results.
Reported metric: Percent Effect (%)
Answers are plain numbers, in %.

# Molecule, Recorded measurement
data = [
    ("CN1CCC(n2nc(CC3CC3)nc2-c2ccc(F)cc2Cl)CC1", 106.3),
    ("CCOCc1nc(-c2ccc(F)cc2Cl)n(C2CCN(C)CC2)n1", 110.7),
    ("Cc1ccc(N2CCCC(NC(=O)C(C)(C)C#N)C2=O)cc1 (stereo not given)", -7.395),
    ("CCOCc1nc(-c2ccc(F)cc2Cl)n(C)n1", 104.7),
]

Input: Could you tell me which Percent Effect is on file for CSc1ccc(NCC(=O)NCC2CC2)cc1F ?
Output: -20.57

====

Provide the recorded Percent Effect for the entries that follow.
- System: Wolbachia pipientis
- Method summary: Anti-Wolbachia Cell-Based Screen
- Format: functional
- Parameters: scale not given: in the data most compounds retested in dose-response had high values
- Experimental conditions: 5 µM
Hit rate of the full screen: of about 48,000 compounds, about 13,000 (27%) showed an effect of 50% or more. The list shows a part of the results.
Answers are plain numbers, in %.

Field: example entries. Status: answers known.
# Compound, Tested system, Unit abbreviation, Percent Effect
measured = [
    ("Cl.NCC(=O)N1CCCC1c1n[nH]cc1-c1ccccc1F (stereo not drawn)", "Wolbachia pipientis", "%", 132.3),
    ("NCC(=O)N1CCCCC1c1ccc(F)cc1 (stereo not drawn)", "Wolbachia pipientis", "%", -11.61),
    ("CCOCCCC(=O)N1CCCC1c1nc(-c2ccccc2F)c[nH]1 (stereo not drawn)", "Wolbachia pipientis", "%", -5.002),
    ("Cc1cccc(C2CCCN(C(=O)CN3CCC(C(N)=O)CC3)C2)c1 (stereo not drawn)", "Wolbachia pipientis", "%", -7.369),
    ("CNCC(=O)N1CCCC1c1n[nH]cc1-c1ccccc1F.Cl (stereo not drawn)", "Wolbachia pipientis", "%", 165.9),
]

// for each compound below, give its Percent Effect
1. COc1ccc(-c2cc(C3CCCCCN3S(=O)(=O)N(C)C)on2)cc1 (stereo not drawn)
2. Cl.Cl.NCC(=O)N1CCCC(c2cncc(Nc3ncccn3)n2)C1 (stereo not drawn)
3. COC(=O)c1cc(CN2CCN(c3ncccc3C)CC2)ccc1O

Output:
1: -9.2; 2: -7.502; 3: 0.3059

====

Provide the recorded Percent Effect for the entries that follow.
- Test system: Wolbachia pipientis
- Method summary: Anti-Wolbachia Cell-Based Screen
- Assay type: functional
- Design: scale not given: in the data most compounds retested in dose-response had high values
- Experimental conditions: 5 µM
The campaign covered roughly 48,000 compounds. About 13,000 (27%) showed an effect of 50% or more. The list shows a part of the results.
Answers are plain numbers, in %.

Below are worked cases with known answers.
# Compound, Percent Effect (%)
measured = [
    ("C1CCC(c2nc3c(c(N4CC(N5CCOCC5)C4)n2)CCNCC3)C1", -4.65),
    ("O=C(COC1CCCC1)N1CC[C@H]2OCC[C@@]2(COCC2CC2)C1", 5.898),
    ("CCOCc1ncn2c1CN(C(=O)Nc1ccccc1)CC2", 106.5),
    ("O=C(Cc1ccco1)N1C[C@H]2CCC[C@@]2(COCC2CC2)C1", 4.43),
    ("O=C(Cn1ccc2ccccc21)N1CCC(Oc2ncccc2Br)CC1", 10.7),
]

Batch lookup, Percent Effect per entry.
1. Cc1nnn2c1COC(CNCc1ccncc1)C2 (configuration not stated)
2. CC(=O)N1CCCN(Cc2nnc(C(C)(C)C)o2)CC1
3. CCN(C)C(C(=O)Nc1ccc2c(c1)CCC(=O)N2)c1ccccc1 (configuration not stated)
4. Cc1ccc(CNCC2Cn3nncc3CO2)o1 (configuration not stated)
5. CCc1nc(CN2CCCC(NCc3nc4cccnc4[nH]3)C2)no1 (configuration not stated)
6. CCOCc1ncn2c1CN(C(=O)c1ccoc1)CC2
7. CCN(CC)CCn1c(NC(=O)c2scnc2C)nc2ccccc21
8. Cc1ccc(CN(C)Cc2cnc(N3CCOCC3)s2)o1

Output:
1. -6.146
2. -4.735
3. 0.8734
4. 84.72
5. -2.824
6. -9.138
7. 105.9
8. 116.2

Below is a list of compounds. For each, state its recorded Percent Effect.
1. O=C1CCC2(CCCN(C(=O)c3ccc[nH]3)C2)CN1CCc1c[nH]cn1 (configuration not stated)
2. CSCCc1c(-c2ccccc2)ncn1CC(C)(C)N1CCOCC1
3. CCS(=O)(=O)c1ncc(CN(C)Cc2ccc(C)o2)n1CCOC
4. CC(C)(O)CN1CCN(C(=O)COC2CCCC2)CC1

Output:
1. -3.691
2. 0.5421
3. -4.34
4. -11.71

Please give Percent Effect for each item listed below.
1. CCOCc1ncn2c1CN(C(=O)Nc1cccc(F)c1)CC2
2. CCOCCCn1c(NC(=O)c2cnc(C)s2)nc2ccccc21
3. CCOCCCn1c(NC(=O)c2scnc2C)nc2ccccc21
4. COC[C@@]12CCC[C@@H]1CN(C(=O)COC1CCCC1)C2

Output:
101.4
27.94
25.92
116

Can you give me Percent Effect for all of these, one by one?
1. Cc1cc(C(=O)NC(C)c2nnn[nH]2)c2ccc(C)c(C)c2n1 (configuration not stated)
2. CCC[C@@H]1CN(Cc2ccc(C(F)(F)F)nc2)C[C@H]1C(=O)O
3. CCOCCCn1c(NC(=O)c2ccnc(C)n2)nc2ccccc21
4. Cc1nc(CN(C)Cc2cnc(N3CCOCC3)s2)no1
5. COc1ccc(C2(C(=O)N3CC(c4cccnc4)C3)CC2(C)C)cc1 (configuration not stated)
6. CCCn1c(NC(=O)CNC(=O)OCC)nc2ccccc21
7. CCNC(=O)N[C@H]1C[C@@H](Cc2cc(CN3CCCCC3)on2)C1(C)C

Output:
[-4.141, 8.814, 73.67, 89.45, -12.52, -6.336, 1.239]

Dear colleague, could you send me Percent Effect for each of the items below? Thanks.
1. CN(Cc1ccc(-n2cccn2)cc1)c1cc(N)nc(N)n1
2. Cc1cc(C(=O)NCC(c2ccccc2Cl)N2CCOCC2)on1 (configuration not stated)
3. c1coc(CNCC2Cn3nncc3CO2)c1 (configuration not stated)
4. Cc1ccc(CNCC2Cn3nnc(-c4cccc(F)c4)c3CO2)o1.O=C(O)C(F)(F)F (configuration not stated)
5. O=C(N1CCCC1)N1C[C@H]2CC[C@@]3(N=C(c4ccccc4)NC3=O)[C@H]2C1
6. CN(Cc1ccsc1)Cc1nc(-c2ccncc2)no1
7. Fc1cccc(CNCC2Cn3nncc3CO2)c1 (configuration not stated)
8. Cc1cccc(NC(=O)N2CCn3cnc(COCC4CC4)c3C2)c1

Output:
1. -3.397
2. -6.198
3. 91.63
4. -4.594
5. -1.269
6. -1.44
7. -13.19
8. 96.57

Take each entry in turn and give its Percent Effect.
1. CCOCc1ncn2c1CN(S(=O)(=O)c1cccs1)CC2
2. CCc1cccc(NC(=O)N2CCn3cnc(COC)c3C2)c1
3. COc1ccc(Br)cc1NCC(=O)NC(C)(C#N)C1CC1 (configuration not stated)
4. CCOCc1ncn2c1CN(C(=O)Nc1cccc(C)c1)CC2
5. Cc1nc(CN(C)C2CCN(CC3CCCC3)C2)no1 (configuration not stated)
6. Cc1cc(CN(C)C2CCCN(Cc3noc(C)n3)C2)on1 (configuration not stated)

Output:
[-7.388, 112.6, 14.48, -4.198, 93.14, 4.561]

====

Consider the following compounds; for each one, report its Percent Effect.
- System: Wolbachia pipientis
- Method summary: Anti-Wolbachia Cell-Based Screen
- Format: functional
- Parameters: scale not given: in the data most compounds retested in dose-response had high values
- Experimental conditions: 5 µM
The campaign covered roughly 48,000 compounds. About 13,000 (27%) showed an effect of 50% or more. The list shows a part of the results.

Here are 6 compounds together with their reported answers.
# Compound, Percent Effect
records = [
    ("O=C(NCCNc1cnccn1)N1CCCCCC1", "67.88%"),
    ("NC(=O)NC(=O)CCSCc1coc(-c2ccc(F)cc2)n1", "75.11%"),
    ("COc1cccc(-c2noc(-c3ccc(NCCCN)nc3)n2)c1OC", "-11.46%"),
    ("CN(CC1CCOC1)S(=O)(=O)c1cccc(C(=O)N2CCCCCC2)c1 (stereo unspecified)", "127.8%"),
    ("Cc1ccc(-c2nc(CSCCC(=O)NC(N)=O)co2)c(C)c1", "110.2%"),
    ("CC(C)NC(=O)c1ccc2c(c1)C(c1nc[nH]n1)CN2S(C)(=O)=O (stereo unspecified)", "2.921%"),
]

Please supply Percent Effect for each of the following items, keeping them in order.
1. CC(SCCC(=O)NC(N)=O)c1ccc(F)cc1F (stereo unspecified)
2. NC(=O)NC(=O)CCSCc1coc(-c2cccc(Cl)c2)n1
3. CN(Cc1cccc(Cl)c1)C(=O)Cn1nc(-c2ccc(F)cc2)oc1=O
4. COc1cc(F)ccc1C(C(=O)O)N(C)CCN1CCCC1 (stereo unspecified)
5. NC(=O)NC(=O)CCSc1ccccc1Cl

Output:
1. -2.178%
2. 85.07%
3. -8.099%
4. -2.761%
5. -10.1%

Answer for every listed entry: what is its Percent Effect? The entries follow.
1. COC(=O)CSCc1noc(-c2ccc(C)cc2)n1
2. CC(C)C(=O)N1CCC(NC2CCSCC2)C1 (stereo unspecified)

Output:
1: -9.658%; 2: -5.859%
